Every entry's value here was drawn from PubChem BioAssay AID248.

# Test system: L1210 leukemia ip in BDF1 mice, survival T/C
# EXPERIMENTAL PROTOCOL: NCI In Vivo Anticancer Drug Screen. Data for tumor model L1210 Leukemia (intraperitoneal) in B6D2F1 (BDF1) mice
# TEST PARAMETERS: endpoint: mean survival time; dose: 200.0 mg/kg/injection; schedule: Q01DX001 (ip); vehicle: Klucel (hydroxypropylcellulose) (HPC); higher = longer survival
Inconclusive results and toxic doses are left out.
PROPERTY: T/C

Below are worked cases with known answers.
COMPOUND: O=C(Nc1cccc(O)c1)Nc1ccccc1F
PROPERTY: T/C
RESULT VALUE: 104 % of control
//
COMPOUND: O=[N+]([O-])/C=C/c1cccs1
PROPERTY: T/C
RESULT VALUE: 103 % of control

## Task Could you share which T/C value was measured for CC12OC1(C)C1(C)C3(C)OC3(C)C21C (configuration not stated) ?
## Result 100 % of control

## Task Follow-up entry: "NC(N)=NC(N)=Nc1cccc(Cl)c1"
## Result 103 % of control

## Task Follow-up entry: "O=C(NCCBr)c1ccc(CCl)cc1"
## Result 95 % of control

## Task Follow-up entry: "CCOc1ccc(-n2c(O)c(N=Nc3ccc(Cl)cc3)c(=O)n(-c3ccc(OC)cc3)c2=S)cc1"
## Result 98 % of control

## Task Follow-up entry: "O=C(COc1ccc(Cl)c(Cl)c1)NCc1cccc(NC(=O)c2cccc(S(=O)(=O)F)c2)c1"
## Result 98 % of control

## Task Follow-up entry: CS(=O)(=O)OC1CCCCCCC1OS(C)(=O)=O (configuration not stated)
## Result 98 % of control

## Task Follow-up entry: "O=c1c2ccccc2n2nnc3cccc1c32"
## Result 87 % of control

## Task Follow-up entry: "COc1cc(NC(=O)CC(C)=O)cc2c(C)cc(=O)[nH]c12"
## Result 96 % of control

## Task Follow-up entry: CCC(Cl)COP(=O)(CC(Cl)CC)OC(C(C)C)P(=O)(OCC(Cl)CC)OCC(Cl)CC (configuration not stated)
## Result 101 % of control

## Task Follow-up entry: "OCc1ccccc1Cn1ccnc1"
## Result 103 % of control

* * *

Each entry below carries its reported T/C.
# Test system: L1210 leukemia ip in BDF1 mice, survival T/C
# EXPERIMENTAL PROTOCOL: NCI In Vivo Anticancer Drug Screen. Data for tumor model L1210 Leukemia (intraperitoneal) in B6D2F1 (BDF1) mice
# TEST PARAMETERS: endpoint: mean survival time; dose: 400.0 mg/kg/injection; schedule: Q01DX009 (ip); vehicle: other; higher = longer survival
Inconclusive results and toxic doses are left out.

Below are worked cases with known answers.
COMPOUND: CCCC1C(CC)CC(CC)C(O)C1(CC)CO (stereo not given)
TARGET OF ASSAY: L1210 leukemia ip in BDF1 mice, survival T/C
T/C: 87 % of control
--
COMPOUND: O=[N+]([O-])/C=C/c1cc2ccccc2[nH]1
TARGET OF ASSAY: L1210 leukemia ip in BDF1 mice, survival T/C
T/C: 107 % of control
--
COMPOUND: C[Si](C)(C)Oc1ccc(O[Si](C)(C)C)cc1
TARGET OF ASSAY: L1210 leukemia ip in BDF1 mice, survival T/C
T/C: 101 % of control
--
COMPOUND: Clc1ccc(N=Cc2ccc3c(c2)OCO3)cc1
TARGET OF ASSAY: L1210 leukemia ip in BDF1 mice, survival T/C
T/C: 90 % of control

# next compound below
## Task Could you share which T/C value was measured for "CNC(=O)Oc1ccc2ccccc2c1" ?
## Result 93 % of control

* * *

Each entry below carries its reported T/C.
# System: L1210 leukemia ip in BDF1 mice, survival T/C
# EXPERIMENTAL PROTOCOL: NCI In Vivo Anticancer Drug Screen. Data for tumor model L1210 Leukemia (intraperitoneal) in B6D2F1 (BDF1) mice
# TEST PARAMETERS: endpoint: mean survival time; dose: 100.0 mg/kg/injection; schedule: Q01DX001 (ip); vehicle: saline with Tween-80; higher = longer survival
Inconclusive results and toxic doses are left out.

Below are worked cases with known answers.
MOLECULE: C=C1CC(C)(C)C(c2ccccc2)OC1=O (stereo unspecified)
T/C: 107 % of control

MOLECULE: CCOC(=O)c1c(N)sc2c1CCC2
T/C: 110 % of control

## Task Could you share which T/C value was measured for "COc1ccc(OC)c(NC(=S)NC(=O)c2ccc(Cl)cc2Cl)c1" ?
## Result 89 % of control

## Task Follow-up entry: "c1ccc(C(Nc2ccnc3nc[nH]c23)c2ccccc2)cc1"
## Result 94 % of control

## Task Follow-up entry: CC(=O)OC1CCC2(C)C(=CCC3C2CCC2(C)C3CC3OC4(CCC(C)CN4C(C)=O)C(C)C32)C1 (stereo unspecified)
## Result 98 % of control

## Task Follow-up entry: "Cc1nc2ccccc2c(=O)n1-c1ccccc1Cl"
## Result 113 % of control

* * *

# Tested on: L1210 leukemia ip in BDF1 mice, survival T/C
# EXPERIMENTAL PROTOCOL: NCI In Vivo Anticancer Drug Screen. Data for tumor model L1210 Leukemia (intraperitoneal) in B6D2F1 (BDF1) mice
# TEST PARAMETERS: endpoint: mean survival time; dose: 100.0 mg/kg/injection; schedule: Q01DX001 (ip); vehicle: other; higher = longer survival
Inconclusive results and toxic doses are left out.
PROPERTY: T/C

Below are worked cases with known answers.
COMPOUND: O=C(Nc1ccc(Br)cc1C(=O)O)c1cccc(Br)c1
TARGET OF ASSAY: L1210 leukemia ip in BDF1 mice, survival T/C
T/C: 103 % of control

COMPOUND: O=C(CBr)Nc1ccc(Cl)cc1
TARGET OF ASSAY: L1210 leukemia ip in BDF1 mice, survival T/C
T/C: 101 % of control

COMPOUND: CC1(C)CN(Cc2ccc(Cl)cc2)C1=O
TARGET OF ASSAY: L1210 leukemia ip in BDF1 mice, survival T/C
T/C: 96 % of control

COMPOUND: O=C(N/N=C/c1ccc2c(c1)OCO2)c1ccco1
TARGET OF ASSAY: L1210 leukemia ip in BDF1 mice, survival T/C
T/C: 96 % of control

COMPOUND: COc1ccc2c(c1)C1(C)CCCC(C)C1=CC2=O (centres undefined)
TARGET OF ASSAY: L1210 leukemia ip in BDF1 mice, survival T/C
T/C: 97 % of control

COMPOUND: CCCCNC(=O)C(F)(F)F
TARGET OF ASSAY: L1210 leukemia ip in BDF1 mice, survival T/C
T/C: 100 % of control

# next compound below
## Task # get_value(readout= T/C, system= L1210 leukemia ip in BDF1 mice, survival T/C) for "O=c1[nH][nH]c(=O)c2ccccc12"
## Result 103 % of control

* * *

# Tested on: L1210 leukemia ip in BDF1 mice, survival T/C
# EXPERIMENTAL PROTOCOL: NCI In Vivo Anticancer Drug Screen. Data for tumor model L1210 Leukemia (intraperitoneal) in B6D2F1 (BDF1) mice
# TEST PARAMETERS: endpoint: mean survival time; dose: 200.0 mg/kg/injection; schedule: Q01DX009 (ip); vehicle: Klucel (hydroxypropylcellulose) (HPC); higher = longer survival
Toxic doses and inconclusive results are not listed.
PROPERTY: T/C

Below are worked cases with known answers.
COMPOUND: CCOC(=O)/C(C#N)=C/c1ccc(O)c(OC)c1
RESULT VALUE: 94 % of control

COMPOUND: CCOC(=O)c1cnn(-c2ccccc2)c1C
RESULT VALUE: 94 % of control

COMPOUND: COc1ccccc1/C=C(\C#N)c1cccc2ccccc12
RESULT VALUE: 89 % of control

COMPOUND: Cc1ccc([N+](=O)[O-])cc1NC(=O)Nc1cccc2ccc(O)cc12
RESULT VALUE: 93 % of control

COMPOUND: S=C(N/N=C/c1ccncc1)Nc1ccccc1
RESULT VALUE: 108 % of control

COMPOUND: CC1=CC(=O)C=CC1(C)C(Cl)(Cl)Cl (configuration not stated)
RESULT VALUE: 91 % of control

# next compound below
## Task Could you share which T/C value was measured for CC(=O)CC(=O)N1CCCC(C)C1 (configuration not stated) ?
## Result 92 % of control

* * *

# Test system: L1210 leukemia ip in BDF1 mice, survival T/C
# EXPERIMENTAL PROTOCOL: NCI In Vivo Anticancer Drug Screen. Data for tumor model L1210 Leukemia (intraperitoneal) in B6D2F1 (BDF1) mice
# TEST PARAMETERS: endpoint: mean survival time; dose: 12.5 mg/kg/injection; schedule: Q04DX003 (ip); vehicle: saline with Tween-80; higher = longer survival
Toxic doses and inconclusive results are not listed.
PROPERTY: T/C

Below are worked cases with known answers.
MOLECULE: COc1cc(Cc2cnc(NC(C)=O)nc2NC(C)=O)cc(OC)c1OC
PROPERTY: T/C
RESULT VALUE: 101 % of control
--
MOLECULE: CC(/C=N/NC(N)=S)Cc1ccc(C(C)C)cc1 (stereo unspecified)
PROPERTY: T/C
RESULT VALUE: 98 % of control
--
MOLECULE: CC(C)C(CNC1=NCCN1)c1cccc2ccccc12 (stereo unspecified)
PROPERTY: T/C
RESULT VALUE: 93 % of control
--
MOLECULE: O=[N+]([O-])c1ccc(Br)o1
PROPERTY: T/C
RESULT VALUE: 101 % of control
--
MOLECULE: COc1cc(/C=N/[N+](C)(C)C)ccc1O
PROPERTY: T/C
RESULT VALUE: 96 % of control

# next molecule below
## Task Could you share which T/C value was measured for CC(CN(C)C)CN1c2ccccc2Sc2ccccc21 (stereo unspecified) ?
## Result 105 % of control
